Readings of IC50 for the listed compounds
# METHOD_NOTES: DNDI: Cytotoxicity against L-6 rat myoblasts from skeletal muscle cells
# ASSAY_CONDITIONS: L6 rat skeletal muscle myoblast cells, IC50

Consider the worked cases shown below.
// query Tell me the measured IC50 of OC1CCN(C(c2ccc(Cl)cc2)c2cccnc2)CC1 (centres undefined) , please.
// result > 100 µM

// query Also need O=C(NC1CCN(C(c2cnccn2)c2ccc(F)cc2F)CC1)c1ccccc1 (centres undefined) , thanks.
// result > 100 µM

// query Also need Cc1nocc1C(=O)N1CCC(NC(c2ccc(C(F)(F)F)cc2)c2cccnc2)CC1 (centres undefined) , thanks.
// result > 100 µM

// query Also need O=C(N1CCN(C(c2cccnc2)c2ccc(Cl)cc2F)CC1)C(F)(F)F (centres undefined) , thanks.
// result > 100 µM

Now consider a different compound.
// query Tell me the measured IC50 of CC(C)CC(=O)N1CCC(NC(c2cnccn2)c2ccc(F)cc2F)CC1 (centres undefined) , please.
// result > 100 µM

====

# METHOD_NOTES: DNDI: Cytotoxicity against L-6 rat myoblasts from skeletal muscle cells
# ASSAY_CONDITIONS: L6 rat skeletal muscle myoblast cells, IC50
ENDPOINT_LABEL: IC50

Consider the worked cases shown below.
// query Tell me the measured IC50 of Cn1ccnc1C(=O)NC1CCN(C(c2ccc(C#N)cc2)c2cccnc2)CC1 (stereo not drawn) , please.
// result > 100 µM

// query Also need Cc1ncoc1C(=O)NC1CCN(C(c2ccc(C#N)cc2)c2cccnc2)CC1 (stereo not drawn) , thanks.
// result > 100 µM

Now consider a different compound.
// query Tell me the measured IC50 of O=S(=O)(C1CCCCC1)N1CCC(NC(c2cnccn2)c2ccc(F)cc2F)CC1 (stereo not drawn) , please.
// result > 100 µM

====

# METHOD_NOTES: DNDI: Cytotoxicity against L-6 rat myoblasts from skeletal muscle cells
# ASSAY_CONDITIONS: L6 rat skeletal muscle myoblast cells, IC50
ENDPOINT_LABEL: IC50

Consider the worked cases shown below.
// query Tell me the measured IC50 of CC(C)(C)CC(=O)N1CCN(C(c2ccc(Cl)cc2)c2cncnc2)CC1 (stereo not given) , please.
// result > 100 µM

// query Also need Clc1ccc(C(c2cccnc2)c2cccs2)cc1 (stereo not given) , thanks.
// result > 100 µM

// query Also need N#Cc1ccc(C(O)(c2ccc(Cl)cc2)c2cccnc2)c(F)c1 (stereo not given) , thanks.
// result > 100 µM

Others:
// query Tell me the measured IC50 of CON=C(Cc1ccccc1)c1ccc(OC)cc1 , please.
// result > 100 µM

// query Also need O=C1CCCN1CCCNC(c1ccc(Cl)cc1)c1cccnc1 (stereo not given) , thanks.
// result > 100 µM

====

# METHOD_NOTES: DNDI: Cytotoxicity against L-6 rat myoblasts from skeletal muscle cells
# ASSAY_CONDITIONS: L6 rat skeletal muscle myoblast cells, IC50
ENDPOINT_LABEL: IC50

Consider the worked cases shown below.
// query Tell me the measured IC50 of CCC(=O)N1CCN(C(c2ccc(Cl)cc2)c2cncnc2)CC1 (stereo not given) , please.
// result > 100 µM

// query Also need Cc1n[nH]c(C)c1C(=O)NC1CCN(C(c2ccc(C#N)cc2)c2cccnc2)CC1 (stereo not given) , thanks.
// result > 100 µM

// query Also need CN(C)C(=O)NC1CCN(C(c2ccc(C(F)(F)F)cc2)c2cnccn2)CC1 (stereo not given) , thanks.
// result > 100 µM

// query Also need CC(O)C(C)N1CCC(NC(c2ccc(Cl)cc2)c2cccnc2)CC1 (stereo not given) , thanks.
// result > 100 µM

Now consider a different compound.
// query Tell me the measured IC50 of OC(c1cccnc1)c1ccc(Cl)cc1F (stereo not given) , please.
// result > 100 µM
